Reported values of pIC50 for individual entries
# assay.target: Receptor-interacting serine/threonine-protein kinase 1 (Homo sapiens)
# Sequence (Q13546 whole entry): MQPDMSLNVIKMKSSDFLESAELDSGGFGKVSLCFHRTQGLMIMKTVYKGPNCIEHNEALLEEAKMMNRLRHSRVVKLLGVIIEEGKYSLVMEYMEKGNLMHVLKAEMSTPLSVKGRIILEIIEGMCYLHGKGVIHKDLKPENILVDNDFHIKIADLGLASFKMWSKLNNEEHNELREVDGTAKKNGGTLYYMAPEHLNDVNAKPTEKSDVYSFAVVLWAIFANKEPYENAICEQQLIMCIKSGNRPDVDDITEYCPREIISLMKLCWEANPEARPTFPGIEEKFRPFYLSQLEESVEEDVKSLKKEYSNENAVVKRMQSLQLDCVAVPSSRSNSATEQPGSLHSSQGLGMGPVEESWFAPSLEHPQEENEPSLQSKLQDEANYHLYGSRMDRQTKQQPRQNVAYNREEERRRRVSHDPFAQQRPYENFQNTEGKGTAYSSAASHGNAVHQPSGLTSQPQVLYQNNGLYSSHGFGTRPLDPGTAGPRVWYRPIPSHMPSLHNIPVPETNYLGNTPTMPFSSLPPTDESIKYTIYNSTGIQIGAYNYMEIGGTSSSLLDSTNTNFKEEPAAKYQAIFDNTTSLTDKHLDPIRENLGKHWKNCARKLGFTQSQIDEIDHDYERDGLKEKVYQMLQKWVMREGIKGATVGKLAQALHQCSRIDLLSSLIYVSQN
pIC50: −log10 of the molar value.
observation.type: pIC50

>  <compound>
C[C@H]1Oc2ccc(C#CCN3CCN(CC#Cc4ccc5c(c4)N(C)C(=O)[C@@H](NC(=O)c4nnn(Cc6ccccc6)n4)[C@@H](C)O5)CC3)cc2N(C)C(=O)[C@H]1NC(=O)c1ncn(Cc2ccccc2)n1 [US20240270732, Compound I-25]

>  <observation.type>
pIC50

>  <assay.value>
8.47

$$$$
>  <compound>
C[C@H]1Oc2ccc(C#CCN3CCN(CC#Cc4ccc5c(c4)N(C)C(=O)[C@@H](NC(=O)c4nnn(Cc6ccccc6)n4)CO5)CC3)cc2N(C)C(=O)[C@H]1NC(=O)c1n[nH]c(Cc2ccccc2)n1 [US20240270732, Compound I-7]

>  <observation.type>
pIC50

>  <assay.value>
8.11

$$$$
>  <compound>
CN1C(=O)[C@@H](NC(=O)c2n[nH]c(Cc3ccccc3)n2)COc2ccc(C#CCOCCOCCOCCOCCOCC#CC#CCOCCOCCOCCOCCOCC#Cc3ccc4c(c3)N(C)C(=O)[C@@H](NC(=O)c3n[nH]c(Cc5ccccc5)n3)CO4)cc21 [US20240270732, Compound I-88]

>  <observation.type>
pIC50

>  <assay.value>
8.18

$$$$
>  <compound>
C#CCN1CCN(CC#Cc2ccc3c(c2)N(C)C(=O)[C@@H](NC(=O)c2cn(Cc4ccccc4)cn2)CO3)CC1 [US20240270732, Compound I-61]

>  <observation.type>
pIC50

>  <assay.value>
8.07

$$$$

----------
Listed below: IC50 values for each entry.
# assay.target: Receptor-interacting serine/threonine-protein kinase 1 (Homo sapiens)

>  <chemical.structure>
C#CCN1CCN(CC#Cc2ccc3c(c2)N(C)C(=O)[C@@H](NC(=O)c2n[nH]c(Cc4ccccc4)n2)CO3)CC1

>  <result.units>
nM

>  <IC50>
3.21

$$$$
>  <chemical.structure>
C[C@H]1Oc2ccc(C#CCN3CCN(CC#Cc4ccc5c(c4)N(C)C(=O)[C@@H](NC(=O)c4cn(Cc6ccccc6)cn4)CO5)CC3)cc2N(C)C(=O)[C@H]1NC(=O)c1n[nH]c(Cc2ccccc2)n1

>  <result.units>
nM

>  <IC50>
8.72

$$$$
>  <chemical.structure>
C#CCN1CCN(CC#Cc2ccc3c(c2)N(C)C(=O)[C@@H](NC(=O)c2ncn(Cc4cccc(N)c4)n2)[C@@H](C)O3)CC1

>  <result.units>
nM

>  <IC50>
29

$$$$

----------
As shown below, each of these molecules has a reported pIC50 value.
# assay.target: Receptor-interacting serine/threonine-protein kinase 1 (Homo sapiens, UniProt Q13546)
# Sequence (Q13546 whole entry): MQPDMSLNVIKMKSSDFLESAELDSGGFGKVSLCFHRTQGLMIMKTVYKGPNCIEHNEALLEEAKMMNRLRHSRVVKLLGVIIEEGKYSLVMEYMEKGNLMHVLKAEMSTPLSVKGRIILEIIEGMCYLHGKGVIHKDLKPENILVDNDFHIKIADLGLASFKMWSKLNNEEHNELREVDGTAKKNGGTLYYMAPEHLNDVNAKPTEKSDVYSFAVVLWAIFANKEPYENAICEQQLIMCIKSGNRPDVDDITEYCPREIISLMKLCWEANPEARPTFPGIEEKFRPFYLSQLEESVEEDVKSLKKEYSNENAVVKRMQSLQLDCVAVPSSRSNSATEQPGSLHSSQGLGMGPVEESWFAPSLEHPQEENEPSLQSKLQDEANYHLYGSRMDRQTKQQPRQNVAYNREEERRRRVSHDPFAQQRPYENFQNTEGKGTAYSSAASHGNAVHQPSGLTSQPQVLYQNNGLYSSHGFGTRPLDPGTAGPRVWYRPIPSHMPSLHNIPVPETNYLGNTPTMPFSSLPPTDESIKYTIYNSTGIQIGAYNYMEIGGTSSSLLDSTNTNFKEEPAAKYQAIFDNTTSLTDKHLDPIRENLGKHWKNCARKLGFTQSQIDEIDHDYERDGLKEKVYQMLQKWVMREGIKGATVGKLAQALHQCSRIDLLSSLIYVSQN
pIC50: −log10 of the molar value.
observation.type: pIC50

>  <chemical.structure>
C[C@H]1Oc2ccc(C#CCN3CCN(CC#Cc4ccc5c(c4)NC(=O)[C@@H](NC(=O)c4n[nH]c(Cc6ccccc6)n4)[C@@H](C)O5)CC3)cc2NC(=O)[C@H]1NC(=O)c1n[nH]c(Cc2ccccc2)n1

>  <assay.target>
Receptor-interacting serine/threonine-protein kinase 1 (Homo sapiens, UniProt Q13546)

>  <assay.value>
8.45

$$$$
>  <chemical.structure>
C#CCN1CCN(CC#Cc2ccc3c(c2)N(C)C(=O)[C@@H](NC(=O)c2cc(Cc4ccccc4)on2)[C@@H](C)O3)CC1

>  <assay.target>
Receptor-interacting serine/threonine-protein kinase 1 (Homo sapiens, UniProt Q13546)

>  <assay.value>
7.85

$$$$
>  <chemical.structure>
C[C@H]1Oc2ccc(C#Cc3cccnc3)cc2N(C)C(=O)[C@H]1NC(=O)c1n[nH]c(Cc2ccccc2)n1

>  <assay.target>
Receptor-interacting serine/threonine-protein kinase 1 (Homo sapiens, UniProt Q13546)

>  <assay.value>
8.17

$$$$
>  <chemical.structure>
C#CCN1CCN(CC#Cc2ccc3c(c2)N(C)C(=O)[C@@H](NC(=O)c2ncn(Cc4cccc(O)c4)n2)[C@@H](C)O3)CC1

>  <assay.target>
Receptor-interacting serine/threonine-protein kinase 1 (Homo sapiens, UniProt Q13546)

>  <assay.value>
7.68

$$$$
>  <chemical.structure>
C#CCN1CCN(CC#Cc2ccc3c(c2)NC(=O)[C@@H](NC(=O)c2n[nH]c(Cc4ccccc4)n2)[C@@H](C)O3)CC1

>  <assay.target>
Receptor-interacting serine/threonine-protein kinase 1 (Homo sapiens, UniProt Q13546)

>  <assay.value>
8.25

$$$$

----------
pIC50: −log10 of the molar value.
# collection of pIC50 values tested on Receptor-interacting serine/threonine-protein kinase 1 (Homo sapiens, UniProt Q13546)

>  <chemical.structure>
C#CCN1CCN(CC#Cc2ccc3c(c2)N(C)C(=O)[C@@H](NC(=O)c2cnn(Cc4ccccc4)c2)[C@@H](C)O3)CC1

>  <pIC50>
7.87

$$$$
>  <chemical.structure>
C[C@H]1Oc2ccc(C#CCN3CCN(CC#Cc4ccc5c(c4)N(C)C(=O)[C@@H](NC(=O)c4ncn(Cc6ccccc6)n4)CO5)CC3)cc2N(C)C(=O)[C@H]1NC(=O)c1n[nH]c(Cc2ccccc2)n1

>  <pIC50>
8.47

$$$$
>  <chemical.structure>
C[C@@H]1Oc2ccc(C#CCN3CCN(CC#Cc4ccc5c(c4)N(C)C(=O)[C@@H](NC(=O)c4cn(Cc6ccccc6)cn4)[C@H](C)O5)CC3)cc2N(C)C(=O)[C@H]1NC(=O)c1cn(Cc2ccccc2)cn1

>  <pIC50>
7.21

$$$$
>  <chemical.structure>
C#CCN1CCN(CC#Cc2ccc3c(c2)NC(=O)[C@@H](NC(=O)c2n[nH]c(Cc4ccccc4)n2)CO3)CC1

>  <pIC50>
8.03

$$$$
>  <chemical.structure>
C[C@H]1Oc2ccc(C#CCN3CCN(CC#Cc4ccc5c(c4)N(C)C(=O)[C@@H](NC(=O)c4n[nH]c(Cc6ccncc6)n4)[C@@H](C)O5)CC3)cc2N(C)C(=O)[C@H]1NC(=O)c1n[nH]c(Cc2ccncc2)n1

>  <pIC50>
7.73

$$$$
